Test system: ES-2
measurement_protocol: Inhibition of erastin-induced ferroptosis in human ES2 cells assessed as increase in cell viability incubated for 48 hrs in presence of erastin by MTT assay
Format: functional, cell-based
measurement_setup: ES-2, 48 h
Measured pEC50, listed per entry for reference.
Units for pEC50: none; it is -log10 of a concentration expressed in mol/L.

smiles_str: FC(F)(F)Oc1cccc(-c2noc(-c3cccc4nc5ccccc5nc34)n2)c1
pEC50: 8.22

Now turn to the next compound.
Recorded pEC50 (compound CC(C)(C)c1ccc(-c2noc(-c3cccc4nc5ccccc5nc34)n2)cc1 ): 7.96

---

Tested on: ES-2
measurement_protocol: Inhibition of erastin-induced ferroptosis in human ES2 cells assessed as increase in cell viability incubated for 48 hrs in presence of erastin by MTT assay
Format: functional, cell-based
measurement_setup: ES-2, 48 h
pEC50: −log10 of the molar value.
Cut-off 8 on pEC50, inclusive. At or above means true (1); below means false (0).

Below are worked cases with known answers.
smiles_str: Fc1ccc(-c2noc(-c3cccc4nc5ccccc5nc34)n2)cc1
assigned_label: true (1)

smiles_str: FC(F)(F)c1ccc(-c2noc(-c3cccc4nc5ccccc5nc34)n2)cc1
assigned_label: true (1)

smiles_str: c1cc(CN2CCCCC2)cc(-c2noc(-c3cccc4nc5ccccc5nc34)n2)c1
assigned_label: true (1)

Query: pEC50 >= 8 for CCOC(=O)c1ccc(NC2CCCCC2)c(N)c1 ?
Reply: false (0)

---

System: ES-2
measurement_protocol: Inhibition of erastin-induced ferroptosis in human ES2 cells assessed as increase in cell viability incubated for 48 hrs in presence of erastin by MTT assay
Format: functional, cell-based
measurement_setup: ES-2, 48 h
Recorded EC50 by entry
Give the value in nM but do not write nM after it.

Value of measured EC50 for the entry Fc1cccc(-c2noc(-c3cccc4nc5ccccc5nc34)n2)c1 : 2

Memo: Cc1ccc(-c2noc(-c3cccc4nc5ccccc5nc34)n2)cc1 , reported EC50: 130

Per the record, c1ccc2nc3c(-c4nc(-c5ccc(N6CCOCC6)cc5)no4)cccc3nc2c1 has EC50 of 1

---

Test system: ES-2
measurement_protocol: Inhibition of erastin-induced ferroptosis in human ES2 cells assessed as increase in cell viability incubated for 48 hrs in presence of erastin by MTT assay
Assay type: functional, cell-based
measurement_setup: ES-2, 48 h
This listing pairs compounds with measured log10(EC50).
Please keep in mind that the values are log10 of EC50 expressed in nM.

Examples with answers:
smiles_str: c1ccc(-c2noc(-c3cccc4nc5ccccc5nc34)n2)nc1
measured_target: ES-2
log10(EC50): 2.12
//
smiles_str: FC(F)(F)c1cccc(-c2noc(-c3cccc4nc5ccccc5nc34)n2)c1
measured_target: ES-2
log10(EC50): 0.30
//
smiles_str: Cc1cccc(-c2noc(-c3cccc4nc5ccccc5nc34)n2)c1
measured_target: ES-2
log10(EC50): 0.85
//
smiles_str: c1ccc2nc3c(-c4nc(-n5cccn5)no4)cccc3nc2c1
measured_target: ES-2
log10(EC50): 2.16
//
smiles_str: CN(C)c1cccc(-c2noc(-c3cccc4nc5ccccc5nc34)n2)c1
measured_target: ES-2
log10(EC50): 0.00
//
smiles_str: c1ccc2nc3ccccc3nc2c1
measured_target: ES-2
log10(EC50): 3.45
//
smiles_str: Brc1cccc(-c2noc(-c3cccc4nc5ccccc5nc34)n2)c1
measured_target: ES-2
log10(EC50): 0.30
//
smiles_str: c1ccc(-c2noc(-c3cccc4nc5ccccc5nc34)n2)cc1
measured_target: ES-2
log10(EC50): 0.60

Entry CC(C)(C)c1noc(-c2cccc3nc4ccccc4nc23)n1 , log10(EC50) reported as 2.78

Looking up CC(C)(C)c1cccc(-c2noc(-c3cccc4nc5ccccc5nc34)n2)c1 , I found its log10(EC50) recorded as 0.48

The compound listed as CC(C)c1noc(-c2cccc3nc4ccccc4nc23)n1 has a reported log10(EC50) of 2.13

---

Test system: ES-2
measurement_protocol: Inhibition of erastin-induced ferroptosis in human ES2 cells assessed as increase in cell viability incubated for 48 hrs in presence of erastin by MTT assay
Assay type: functional, cell-based
measurement_setup: ES-2, 48 h
pEC50: −log10 of the molar value.
Entry flag: yes (1) if pEC50 reaches 8; no (0) if it does not.

Here are 5 molecules together with their reported answers.
smiles_str: c1cncc(-c2noc(-c3cccc4nc5ccccc5nc34)n2)c1
assigned_label: no (0)
--
smiles_str: c1ccc2nc3c(-c4nc(C5CC5)no4)cccc3nc2c1
assigned_label: no (0)
--
smiles_str: Fc1ccccc1-c1noc(-c2cccc3nc4ccccc4nc23)n1
assigned_label: yes (1)
--
smiles_str: Cc1noc(-c2cccc3nc4ccccc4nc23)n1
assigned_label: no (0)
--
smiles_str: CCOc1ccccc1-c1noc(-c2cccc3nc4ccccc4nc23)n1
assigned_label: no (0)

Let's switch to this molecule now.
Query: Exam item: decide whether the reported pEC50 for FC(F)(F)c1ccccc1-c1noc(-c2cccc3nc4ccccc4nc23)n1 is at least 8.
Reply: no (0)

---

Test system: ES-2
measurement_protocol: Inhibition of erastin-induced ferroptosis in human ES2 cells assessed as increase in cell viability incubated for 48 hrs in presence of erastin by MTT assay
Type: functional, cell-based
measurement_setup: ES-2, 48 h
# Lookup of reported pEC50 keyed by entry
Value format note: pEC50 is -log10 of concentration (mol/L); just state the number.

Sample records with pEC50:
smiles_str: Cc1ccccc1-c1noc(-c2cccc3nc4ccccc4nc23)n1
pEC50: 7.89

smiles_str: c1ccc2nc3c(-c4nc(-c5ccncc5)no4)cccc3nc2c1
pEC50: 8.15

// pEC50 value for Fc1ccc(-c2noc(-c3cccc4nc5ccccc5nc34)n2)cc1F : 8.05
